# target-desc: Yap3 (UniProt P38749)
# Sequence: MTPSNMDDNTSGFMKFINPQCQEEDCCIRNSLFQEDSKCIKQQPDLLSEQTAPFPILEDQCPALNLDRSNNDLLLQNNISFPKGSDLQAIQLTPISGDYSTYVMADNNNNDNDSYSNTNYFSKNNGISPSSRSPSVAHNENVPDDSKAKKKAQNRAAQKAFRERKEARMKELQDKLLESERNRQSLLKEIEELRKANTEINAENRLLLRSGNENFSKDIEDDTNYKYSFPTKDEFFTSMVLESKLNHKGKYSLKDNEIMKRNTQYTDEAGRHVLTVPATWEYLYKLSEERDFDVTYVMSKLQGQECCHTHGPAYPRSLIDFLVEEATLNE
# assay-info: PBM E-score (8-mer binding enrichment) (E-score (-0.5 to 0.5)); higher = stronger / more preferred TF binding
# reported-conditions: protein concentration: 100 nM; construct: GST-full length
Whole data set: some 33,000 sequences, median “E-score (-0.5 to 0.5)” near -0.0034, cut for the highest 2% near 0.25. Many of the other results were omitted from the sample, so the highest values are more common in it than they were.
parameter: PBM E-score

- CAAACTCC: -0.0365
- ATACCCAG: -0.0813
- AACTTGCA: 0.108
- GTCCCGGA: -0.103
- AAAATTAG: 0.227

Where do the numbers come from? From the supplement of paper PMC3334620.
